# Tested on: HH
# test.summary: Combination study, ATPLite 72 h, dose matrix (Synergy Score, CI50)
# Format: cell-based
# test.parameters: combination with Compound 1
Structures can show the parent of a compound that is named as a salt.
property.label: Synergy Score inhibition

Answered examples (6):
Value of measured Synergy Score inhibition for the entry COc1ccc(-c2ccc3c(N4CCOC[C@@H]4C)nc(N4CCOC[C@@H]4C)nc3n2)cc1CO [AZD 8055] : A2 (A2=1 to <3)

Value of measured Synergy Score inhibition for the entry CS(=O)(=O)N1CCN(Cc2cc3nc(-c4cccc5[nH]ncc45)nc(N4CCOCC4)c3s2)CC1 [GDC-0941] : A1 (A1=0.0001 to <1)

Value of measured Synergy Score inhibition for the entry NC1(c2ccc(-c3nc4ccn5c(=O)[nH]nc5c4cc3-c3ccccc3)cc2)CCC1 [MK-2206] : A2 (A2=1 to <3)

Value of measured Synergy Score inhibition for the entry CN1CCc2c(c3ccccc3n2Cc2ccc(C(=O)NO)cc2)C1.Cl [Tubastatin A hydrochloride] : A2 (A2=1 to <3)

Value of measured Synergy Score inhibition for the entry COc1cccc2c1C(=O)c1c(O)c3c(c(O)c1C2=O)C[C@@](O)(C(=O)CO)C[C@@H]3O[C@H]1C[C@H](N)[C@H](O)[C@H](C)O1 [Doxorubicin HCl] : A2 (A2=1 to <3)

Value of measured Synergy Score inhibition for the entry Nc1cccc2c1CN(C1CCC(=O)NC1=O)C2=O (stereo not shown) [lenalidomide] : A1 (A1=0.0001 to <1)

---
Value of measured Synergy Score inhibition for the entry CC(=O)Nc1cccc(-n2c(=O)n(C3CC3)c(=O)c3c(Nc4ccc(I)cc4F)n(C)c(=O)c(C)c32)c1 [trametinib] : A2 (A2=1 to <3)

----------
# Test system: HH
# test.summary: Combination study, ATPLite 72 h, dose matrix (Synergy Score, CI50)
# Format: cell-based
# test.parameters: combination with Compound 1
property.label: Synergy Score growth inhibition

Value of measured Synergy Score growth inhibition for the entry `CO[C@H]1C[C@@H]2CC[C@@H](C)[C@@](O)(O2)C(=O)C(=O)N2CCCC[C@H]2C(=O)O[C@H]([C@H](C)C[C@@H]2CC[C@@H](OCCO)[C@H](OC)C2)CC(=O)[C@H](C)/C=C(\C)[C@@H](O)[C@@H](OC)C(=O)[C@H](C)C[C@H](C)/C=C/C=C/C=C/1C` : A3 (A3=>3)

Value of measured Synergy Score growth inhibition for the entry `C[C@@H]1C[C@H]2[C@@H]3CCC4=CC(=O)C=C[C@]4(C)[C@@]3(F)[C@@H](O)C[C@]2(C)[C@@]1(O)C(=O)CO` : A3 (A3=>3)

Value of measured Synergy Score growth inhibition for the entry `NC1(c2ccc(-c3nc4ccn5c(=O)[nH]nc5c4cc3-c3ccccc3)cc2)CCC1` : A3 (A3=>3)

----------
# System: SU-DHL-10-epst
# test.summary: Combination study, ATPLite 72 h, dose matrix (Synergy Score, CI50)
# test.parameters: combination with Compound 1, 72 h
property.label: CI50 growth inhibition

Answered examples (4):
Value of measured CI50 growth inhibition for the entry CS(=O)(=O)N1CCN(Cc2cc3nc(-c4cccc5[nH]ncc45)nc(N4CCOCC4)c3s2)CC1 [GDC-0941] : S (S=0.01 to <0.5)

Value of measured CI50 growth inhibition for the entry COc1ccc(-c2ccc3c(N4CCOC[C@@H]4C)nc(N4CCOC[C@@H]4C)nc3n2)cc1CO [AZD 8055] : S (S=0.01 to <0.5)

Value of measured CI50 growth inhibition for the entry CC(C)C[C@H](NC(=O)[C@H](Cc1ccccc1)NC(=O)c1cnccn1)B(O)O [bortezomib] : U (U=0.7 to <1)

Value of measured CI50 growth inhibition for the entry NC1(c2ccc(-c3nc4ccn5c(=O)[nH]nc5c4cc3-c3ccccc3)cc2)CCC1 [MK-2206] : S (S=0.01 to <0.5)

Attention now turns to another entry.
Value of measured CI50 growth inhibition for the entry CC(C)C[C@H](NC(=O)[C@H](CCc1ccccc1)NC(=O)CN1CCOCC1)C(=O)N[C@@H](Cc1ccccc1)C(=O)N[C@@H](CC(C)C)C(=O)[C@@]1(C)CO1 [carfilzomib] : U (U=0.7 to <1)
